- tgt: RecA (Escherichia coli, UniProt P0A7G6 1-353)
- Sequence (P0A7G6 whole entry): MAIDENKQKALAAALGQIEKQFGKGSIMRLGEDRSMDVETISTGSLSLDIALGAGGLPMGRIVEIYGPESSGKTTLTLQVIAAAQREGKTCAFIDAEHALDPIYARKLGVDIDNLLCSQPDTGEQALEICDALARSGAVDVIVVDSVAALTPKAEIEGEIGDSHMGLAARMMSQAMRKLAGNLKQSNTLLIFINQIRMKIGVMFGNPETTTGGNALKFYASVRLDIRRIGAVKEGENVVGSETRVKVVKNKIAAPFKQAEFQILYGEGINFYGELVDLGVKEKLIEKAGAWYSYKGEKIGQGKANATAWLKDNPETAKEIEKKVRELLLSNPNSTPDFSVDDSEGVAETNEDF
- assay_details: double filter binding
readout: pKd
The read-out pKd is expressed as -log10 of concentration in moles per litre.

The reported value for CCACCACCACCACCACCACCACCACCACCACCACCACCACCACCACCA (ssDNA) [CCA-repeating 48mer] in terms of pKd is 6.61
